Source: ChEMBL document CHEMBL3734715

- System: MCF7
- PROTOCOL_DESCRIPTION: Cytotoxicity against human MCF7 cells after 72 hrs by SRB assay
- Type: functional, cell-based
- EXPERIMENTAL_CONTEXT: MCF7, 72 h
Known IC50 of a selection of compounds
Give the value in µM but do not write µM after it.

| SMILES_DATA | MEASURE_UNIT | MEASURED_RESULT |
| --- | --- | --- |
| CCC1=C[C@@H]2C[C@](C(=O)OC)(c3cc4c(cc3OC)N(C)[C@H]3[C@@](O)(C(=O)OC)[C@H](OC(C)=O)[C@]5(CC)C=CCN6CC[C@]43[C@@H]65)c3[nH]c4ccccc4c3CC[N@@+](CC(=O)/C=C/c3ccc(Cl)cc3)(C1)C2 | µM | 1.83 |
| CC[C@]1(O)C[C@@H]2C[C@](C(=O)OC)(c3cc4c(cc3OC)N(C=O)[C@H]3[C@@](O)(C(=O)OC)[C@H](OC(C)=O)[C@]5(CC)C=CCN6CC[C@]43[C@@H]65)c3[nH]c4ccccc4c3CC[N@+](CC(=O)/C=C/c3ccc(O)c(OC)c3)(C2)C1 | µM | 3.08 |
| CC[C@]1(O)C[C@@H]2C[C@](C(=O)OC)(c3cc4c(cc3OC)N(C)[C@H]3[C@@](O)(C(=O)OC)[C@H](OC(C)=O)[C@]5(CC)C=CCN6CC[C@]43[C@@H]65)c3[nH]c4ccccc4c3CC[N@+](CC(=O)/C=C/c3ccc4ccccc4c3)(C2)C1 | µM | 13.7 |

Then this compound:
stdin: Answer with reported IC50 of CCC1=C[C@@H]2C[C@](C(=O)OC)(c3cc4c(cc3OC)N(C)[C@H]3[C@@](O)(C(=O)OC)[C@H](OC(C)=O)[C@]5(CC)C=CCN6CC[C@]43[C@@H]65)c3[nH]c4ccccc4c3CC[N@@+](CC(=O)/C=C/c3ccc(O)c(OC)c3)(C1)C2
stdout: 50.5
